B1: C9orf25 (parent)
chain: LARKGSLKNGSMGSPVNQQPKKNN

# Variants of: B1
# assay_summary: protein stability index of a GFP-peptide fusion (GPS, HEK-293T) (PSI 1-6); higher = more stable;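 also: lentivirally expressed fusions sorted by FACS into six bins by GFP to DsRed ratio, PSI derived from sequencing read proportions per bin multiplied by bin number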
# cond: c terminus: a fixed tail appended
test_readout: protein stability index

Q19E	4.73
P20I	4.65
R3H	4.85
Q18M	4.64
Q18L	4.32

### Prompt Look at this variant and give its reported protein stability index. "A2Q"
### Response 4.63

### Prompt Data request, read-out protein stability index, for "A2L"
### Response 4.58

### Prompt Fill in: protein stability index of "N9K" is ___
### Response 4.17

### Prompt Reported protein stability index, variant "N17M" : ____
### Response 4.83

### Prompt Recorded protein stability index of "G13R" , please.
### Response 4.36

### Prompt Fill blank: measured protein stability index of the variant "A2E" is ____.
### Response 5.09
